- System: N. fowleri ATCC® 30215™
- ASSAY_SUMMARY: alamarBlue colorimetric activity assay, trophozoites
- Assay type: cell-based, Naegleria fowleri
- REPORTED_CONDITIONS: Naegleria fowleri, ATCC30215; trophozoite stage, 48 h, mean ± SD, triplicate; read-out: N. fowleri ATCC® 30215™ IC50
REPORTED_ENDPOINT: pIC50
Formally, pIC50 is defined as -log10 of the concentration c, with c in mol/L.

Check out these entries, answers already filled in.
Kindly indicate its recorded pIC50. Item: C[C@@H]1[C@H](O)[C@@H](C)/C=C/C=C/C=C/C=C/C=C/C=C/C=C/[C@H](O[C@@H]2O[C@H](C)[C@@H](O)[C@H](N)[C@@H]2O)C[C@@H]2O[C@](O)(C[C@@H](O)C[C@@H](O)[C@H](O)CC[C@@H](O)C[C@@H](O)CC(=O)O[C@H]1C)C[C@H](O)[C@H]2C(=O)O [Amphotericin B, reference compound]
6.80

Read off the recorded pIC50 for CCCCCCCCCCCCCCCCOP(=O)([O-])OCC[N+](C)(C)C [Miltefosine, reference compound]
4.09

Continue with the molecule presented below.
Specify pIC50 for C=C(CCC(=O)C1(C)CCC(C(C)(C)O)O1)C1CCC2OC(C3(C)CCC(Br)C(C)(C)O3)CCC2(C)O1 (stereo not drawn) [18-KetoDT (6), 18-ketodehydrothyrsiferol] and stop.
4.90
